# System: NCI-H226 lung
# EXPERIMENT: NCI tumour cell line growth inhibition, 48 h
MEASUREMENT LABEL: TGI

- MOLECULE: "C=C(C(=O)O)[C@@H]1C[C@@H]2O[C@H]1CC(C)=CCC/C(C)=C/CC[C@@]2(C)O"
  MEASUREMENT LABEL: "TGI"
  RECORDED VALUE: "> 100 µM"

Request: State the recorded TGI for this entry: "S=C1SC(c2ccc(Cl)cc2)(c2ccc(Cl)cc2)c2ccccc21"
Result: > 100 µM

Request: State the recorded TGI for this entry: CC1(C)C2CCC1(CC(=O)O)C(Cl)C2 (centres undefined)
Result: > 100 µM

Request: State the recorded TGI for this entry: COC(=O)C1C2CCCN2OC1(C)CO (centres undefined)
Result: > 100 µM

====

# System: HCT-116 colon
# EXPERIMENT: NCI tumour cell line growth inhibition, 48 h; in the data active = GI50 below about 0.43 µM; inactive = the rest
*1 amine or outer side, *2 acyl side, *3 side chain or, on linkers, in order; H or OH if unused. Where a SMILES comes first, the peptide text is derived from it. Bridges are numbered along the chain shown (N, C = ends). [ ]: non-standard residue; d: D form. The star is where a group is joined. Phe(3-Me) = Cc1cccc(C[C@H](N)C(=O)O)c1; NH(4-Cl-2-F-phenyl) = Fc1cc(Cl)ccc1N*; Pro(4R-Me) = C[C@H]1CN[C@H](C(=O)O)C1; Propanoyl(3-NMe2) = CN(C)CCC(=O)*; Hyp = O=C(O)[C@@H]1C[C@@H](O)CN1; aThr = C[C@H](O)[C@H](N)C(=O)O; Pip = O=C(O)[C@@H]1CCCCN1; CO = O=C([*:1])[*:2]
Respond using exactly one of the listed classes: true for active, false for inactive

- COMPOUND: "O=C([O-])c1ccccc1Nc1ccccc1[O-].[Ni+3].[OH3+].[OH3+].[OH3+]"
  LABEL: "false"
- COMPOUND: "COC(=O)C(Cc1ccccc1)C(=O)C(CC(=O)OC(C)(C)C)NC(=O)OC(C)(C)C (centres undefined)"
  LABEL: "false"
- COMPOUND: "S=C(N/N=C(/c1ccccc1)c1ccccn1)Nc1cccc(Cl)c1"
  LABEL: "true"
- COMPOUND: "O=C(Nc1ccc(Br)cc1F)c1cc(Br)ccc1O"
  LABEL: "false"
- COMPOUND: "Cc1cccc(C[C@H](NC(=O)Nc2ccc(Cl)cc2F)C(=O)N[C@@H]2C(=O)N3C[C@H](OC(=O)CCN(C)C)C[C@H]3C(=O)N3CCCC[C@H]3C(=O)N[C@@H](C)C(=O)N3C[C@H](C)C[C@H]3C(=O)O[C@H]2C)c1 ({NH(4-Cl-2-F-phenyl)-CO}-[Phe(3-Me)][aThr][Hyp](Propanoyl(3-NMe2))[Pip]A[Pro(4R-Me)]; ester 2-C)"
  LABEL: "true"
- COMPOUND: "COc1cc(C2C(C#N)=C(N)Oc3cc(O)ccc32)cc(OC)c1OC (centres undefined)"
  LABEL: "false"

Request: State the result this test recorded for "COc1cc(NC(N)=NCCC(C)(C)c2ccc(C(F)(F)F)cc2)ncc1C#N" .
Result: false

Request: State the result this test recorded for "CC[C@@]1(O)C(=O)OCc2c1cc1n(c2=O)Cc2c-1nc1ccccc1c2/C=N/OC(C)(C)C" .
Result: true

Request: State the result this test recorded for "CC[C@]12CCCN3CC[C@]4(C(=C(C(=O)OC)C1)Nc1ccccc14)[C@@H]32" .
Result: false

====

# Test system: OVCAR-5 ovarian
# EXPERIMENT: NCI tumour cell line growth inhibition, 48 h
Listing of recorded TGI by entry.

- COMPOUND: "COc1ccc(Nc2ncccc2C(=O)NCc2cn(Cc3cccc(Oc4ccccc4)c3)nn2)cc1"
  RECORDED VALUE: "> 100 µM"
- COMPOUND: "N=c1oc2c(Cl)cc(Cl)cc2cc1C(=O)Nc1ccccn1"
  RECORDED VALUE: "> 100 µM"
- COMPOUND: "CCCN1CCN(c2ccc3nc(-c4ccc5nc(-c6ccc(OCC)c(OCC)c6)[nH]c5c4)[nH]c3c2)CC1"
  RECORDED VALUE: "4.32 µM"
- COMPOUND: "CC(O[Si](C)(C)C)C1C=CC(C)n2c(=O)n(-c3ccccc3)c(=O)n21 (centres undefined)"
  RECORDED VALUE: "> 100 µM"

Request: State the recorded TGI for this entry: "Cc1c2cccc-2c(OCCO)cc2c1[nH]c1ccccc12"
Result: 5.83 µM

====

# Tested on: ACHN renal
# EXPERIMENT: NCI tumour cell line growth inhibition, 48 h
MEASUREMENT LABEL: TGI

Request: State the recorded TGI for this entry: CN1CCCCC1CCN1c2ccccc2Sc2ccc(S(C)=O)cc21 (stereo not given)
Result: > 100 µM

====

# System: K-562 leukemia
# EXPERIMENT: NCI tumour cell line growth inhibition, 48 h
MEASUREMENT LABEL: TGI

Observe how each entry below is paired with its result.
- COMPOUND: "Cc1ccc(C)c(NC(=O)C(Cc2c[nH]c3ccccc23)NC(=O)OCc2ccccc2)c1 (stereo unspecified)"
  RECORDED VALUE: "28.9 µM"
- COMPOUND: "CC1(C)CC[C@]2(C(=O)O)CC[C@]3(C)C(=CC[C@@H]4[C@@]5(C)CC[C@H](OC6OC(CO)C(O)C(O)C6OC6OC(CO)C(O)C(O)C6O)C(C)(C)[C@@H]5CC[C@]43C)[C@@H]2C1 (stereo partly specified)"
  RECORDED VALUE: "44.6 µM"
- COMPOUND: "O=C1C(Cl)=C(Nc2cccc(O)c2)C(=O)N1c1cccc(Cl)c1Cl"
  RECORDED VALUE: "29.6 µM"
- COMPOUND: "CC(=O)OCc1cn(S(=O)(=O)c2ccc(C)cc2)cn1"
  RECORDED VALUE: "> 100 µM"
- COMPOUND: "CCn1cnc2c(NC(C)=O)ncnc21"
  RECORDED VALUE: "> 100 µM"

Request: State the recorded TGI for this entry: "C/C(=N\Nc1nc2ccccc2o1)c1ccncn1"
Result: > 100 µM

Request: State the recorded TGI for this entry: "CCc1ccc(Nc2cc(C)nc3nc(C)nn23)cc1"
Result: > 100 µM

Request: State the recorded TGI for this entry: CC1=CC2C(C(C)C)CC1C1C(=O)OC(=O)C21 (stereo unspecified)
Result: > 100 µM

====

# Tested on: OVCAR-4 ovarian
# EXPERIMENT: NCI tumour cell line growth inhibition, 48 h
MEASUREMENT LABEL: GI50

Observe how each entry below is paired with its result.
- MOLECULE: "COc1cc(OC)cc(-c2cncn2-c2ccc(-c3nc4cc(OC)c(OC)c(OC)c4s3)cc2)c1"
  GI50: "6.67 µM"
- MOLECULE: "CC([O-])C(=O)[O-].NCC1CCC1CN.[Pt+4] (stereo not given)"
  GI50: "> 10 µM"
- MOLECULE: "COc1ccc(/C=C/C(=O)c2ccc(Nc3ccnc4cc(Cl)ccc34)cc2)cc1"
  GI50: "> 100 µM"
- MOLECULE: "Cc1ccc(NC(=O)c2nc(S(C)=O)oc2-c2ccc(F)cc2)cc1Nc1nccc(-c2cccnc2)n1 (stereo not given)"
  GI50: "3.16 µM"

We next turn to a different molecule, shown below.
Request: State the recorded GI50 for this entry: "O=S(=O)(NCCCNc1cc(-c2cn(-c3ccccc3)nc2-c2cccc(O)c2)ccn1)c1ccc(Cl)cc1"
Result: 1.67 µM

====

# System: A549 NSCLC
# EXPERIMENT: NCI tumour cell line growth inhibition, 48 h
Listing of recorded TGI by entry.

Observe how each entry below is paired with its result.
- ITEM SMILES: "CCc1n[nH]c(=O)n1NC(=O)/C=C\\C(=O)O"
  EXPERIMENTAL SYSTEM: "A549 NSCLC"
  TGI: "> 100 µM"
- ITEM SMILES: "N#Cc1c2nc3ccccc3nc2n2ccc3ccccc3c12"
  EXPERIMENTAL SYSTEM: "A549 NSCLC"
  TGI: "> 100 µM"

We next turn to a different compound, shown below.
Request: State the recorded TGI for this entry: "CCOP(=O)(OCC)/C(C#N)=C/c1c(C)[nH]c2ccccc12"
Result: > 100 µM

====

# Test system: OVCAR-5 ovarian
# EXPERIMENT: NCI tumour cell line growth inhibition, 48 h
MEASUREMENT LABEL: TGI (µM)
Number only, in µM; omit the unit.

- ITEM SMILES: "CCCCP(CCCC)(CCCC)=C(C(=O)OC)C(C(=O)OC)=C1SC(C(=O)OC)=C(C(=O)OC)S1"
  MEASUREMENT UNIT: "µM"
  TGI: 52.5

Request: State the recorded TGI for this entry: "COc1ccc(CNc2nc(NCc3ccc(OC)cc3)c3n[nH]c(C(C)C)c3n2)cc1"
Result: 56.6
